# credit: the supplement of paper PMC12645437

Please go through the items and note down their log2 fold change of degron read counts.
Target: T1, CRBN, Q96SW2;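 further: pooled lentiviral library of zinc finger degron-EGFP fusions in mCherry-positive Jurkat cells, FACS-sorted after compound exposure, with degron abundance counted by next-generation sequencing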
T1 chain: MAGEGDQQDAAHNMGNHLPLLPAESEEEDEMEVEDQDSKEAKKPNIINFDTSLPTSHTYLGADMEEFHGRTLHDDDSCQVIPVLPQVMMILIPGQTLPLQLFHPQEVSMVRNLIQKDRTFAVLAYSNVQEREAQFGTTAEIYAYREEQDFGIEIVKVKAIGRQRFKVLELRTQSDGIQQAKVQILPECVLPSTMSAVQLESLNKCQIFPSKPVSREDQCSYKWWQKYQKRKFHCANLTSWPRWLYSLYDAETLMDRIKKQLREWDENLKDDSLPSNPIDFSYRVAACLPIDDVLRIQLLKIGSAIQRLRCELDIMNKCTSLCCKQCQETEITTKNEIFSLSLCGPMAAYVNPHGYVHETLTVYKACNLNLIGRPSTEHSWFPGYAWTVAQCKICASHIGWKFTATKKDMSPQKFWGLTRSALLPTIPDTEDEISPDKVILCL
Test: log2 fold change of degron read counts, EGFP-low vs EGFP+ sorted cells (limma voom), compound-induced degradation; higher = more compound-induced degradation of the degron-EGFP fusion; degrons are variants of IKZF1/3 zinc finger 2; compound dose not given here
Settings: Jurkat; 18 h; compound: compound 33 (diphenyl IMiD analogue)
In all, about 8,300 sequences were measured (“log2 fold change of degron read counts, EGFP-low vs EGFP+ sorted cells (limma voom), compound-induced degradation”: median about -1.1, highest 2% from about 3.2 on). This is one part of a sample in which the highest values are shown more often than they occur.
One number for each entry.

In: // returns reported log2 fold change of degron read counts for input FFCEVCGAEFTQKGNLLRHIKL [46F_47F_49E_50V_52G_53A_54E_55F_67L_, Q9UKT9]
Out: 0.82

Dear reader, for each entry below, please note its log2 fold change of degron read counts.
1. FKCEVCGAEFTQKGNLLRHIKL [46F_47K_49E_50V_52G_53A_54E_55F_67L_, Q9UKT9]
2. FSCPVCGAEFTQKGNLLRHIKL [46F_47S_49P_50V_52G_53A_54E_55F_67L_, Q9UKT9]
3. FVCPVCGAEFTQKGNLLRHIKL [46F_47V_49P_50V_52G_53A_54E_55F_67L_, Q9UKT9]

Out:
-2.99
1.45
1.37
